System: A549
protocol: Cytotoxicity against human A549 cells after 48 hrs by MTT assay
Format: functional, cell-based
run parameters: A549, 48 h
reported metric: pIC50
Numbers only, as −log10 of the molar value.

Param item = OCP(CO)CO [TRIS(HYDROXYMETHYL)PHOSPHINE] ; retrieve measured pIC50.
4.14

====

Tested on: Caco-2
protocol: Cytotoxicity against human CaCo2 cells after 48 hrs by MTT assay
Type: functional, cell-based
run parameters: Caco-2, 48 h
reported metric: pIC50
Answers are plain numbers, as −log10 of the molar value.

Find the recorded pIC50 belonging to OCP(CO)CCP(CO)CO and report it.
4.08

====

Tested on: Daudi
protocol: Cytotoxicity against human Daudi cells after 48 hrs by MTT assay
Format: functional, cell-based
reported metric: IC50

{"columns": ["molecule", "IC50"],
 "data": [
  ["OCP(CO)CO [TRIS(HYDROXYMETHYL)PHOSPHINE]", "> 100 µM"]
]}

Query (molecule): OCP(CO)CCP(CO)CO ; field requested: IC50
> 100 µM
